Test system: Staphylococcus aureus
EXPERIMENT_SUMMARY: Antibacterial activity against methicillin-sensitive Staphylococcus aureus MTCC 737 assessed as growth inhibition by broth microdilution method
Type: functional
REPORTED_METRIC: log10(MIC) (log10 of the value in µM)
Hey, these are logged values: log10 of MIC, µM being the unit before logging.

CCCCCCCCCCCCCC[N+](C)(C)CCCNC(=O)[C@H]1NC(=O)[C@H]2NC(=O)[C@H](NC(=O)[C@@H]3NC(=O)[C@H](CC(N)=O)NC(=O)[C@H](NC(=O)[C@@H](CC(C)C)NC)[C@H](O)c4ccc(c(Cl)c4)Oc4cc3cc(c4O[C@@H]3O[C@H](CO)[C@@H](O)[C@H](O)[C@H]3O[C@H]3C[C@](C)(N)[C@H](O)[C@H](C)O3)Oc3ccc(cc3Cl)[C@H]2O)c2ccc(O)c(c2)-c2c(O)cc(O)cc21.O=C([O-])C(F)(F)F :: 0.10
CCCCCCCC[N+](C)(C)CCCNC(=O)[C@H]1NC(=O)[C@H]2NC(=O)[C@H](NC(=O)[C@@H]3NC(=O)[C@H](CC(N)=O)NC(=O)[C@H](NC(=O)[C@@H](CC(C)C)NC)[C@H](O)c4ccc(c(Cl)c4)Oc4cc3cc(c4O[C@@H]3O[C@H](CO)[C@@H](O)[C@H](O)[C@H]3O[C@H]3C[C@](C)(N)[C@H](O)[C@H](C)O3)Oc3ccc(cc3Cl)[C@H]2O)c2ccc(O)c(c2)-c2c(O)cc(O)cc21.O=C([O-])C(F)(F)F :: -0.51
CN[C@H](CC(C)C)C(=O)N[C@H]1C(=O)N[C@@H](CC(N)=O)C(=O)N[C@H]2C(=O)N[C@H]3C(=O)N[C@H](C(=O)N[C@H](C(=O)O)c4cc(O)cc(O)c4-c4cc3ccc4O)[C@H](O)c3ccc(c(Cl)c3)Oc3cc2cc(c3O[C@@H]2O[C@H](CO)[C@@H](O)[C@H](O)[C@H]2O[C@H]2C[C@](C)(N)[C@H](O)[C@H](C)O2)Oc2ccc(cc2Cl)[C@H]1O :: -0.20
CC[N+](C)(C)CCCNC(=O)[C@H]1NC(=O)[C@H]2NC(=O)[C@H](NC(=O)[C@@H]3NC(=O)[C@H](CC(N)=O)NC(=O)[C@H](NC(=O)[C@@H](CC(C)C)NC)[C@H](O)c4ccc(c(Cl)c4)Oc4cc3cc(c4O[C@@H]3O[C@H](CO)[C@@H](O)[C@H](O)[C@H]3O[C@H]3C[C@](C)(N)[C@H](O)[C@H](C)O3)Oc3ccc(cc3Cl)[C@H]2O)c2ccc(O)c(c2)-c2c(O)cc(O)cc21 :: -0.41
CCCC[N+](C)(C)CCCNC(=O)[C@H]1NC(=O)[C@H]2NC(=O)[C@H](NC(=O)[C@@H]3NC(=O)[C@H](CC(N)=O)NC(=O)[C@H](NC(=O)[C@@H](CC(C)C)NC)[C@H](O)c4ccc(c(Cl)c4)Oc4cc3cc(c4O[C@@H]3O[C@H](CO)[C@@H](O)[C@H](O)[C@H]3O[C@H]3C[C@](C)(N)[C@H](O)[C@H](C)O3)Oc3ccc(cc3Cl)[C@H]2O)c2ccc(O)c(c2)-c2c(O)cc(O)cc21 :: -0.43

Now take the following molecule into account.
Per the records, this molecule ( `CCCCCCCCCCCCCCCCCC[N+](C)(C)CCCNC(=O)[C@H]1NC(=O)[C@H]2NC(=O)[C@H](NC(=O)[C@@H]3NC(=O)[C@H](CC(N)=O)NC(=O)[C@H](NC(=O)[C@@H](CC(C)C)NC)[C@H](O)c4ccc(c(Cl)c4)Oc4cc3cc(c4O[C@@H]3O[C@H](CO)[C@@H](O)[C@H](O)[C@H]3O[C@H]3C[C@](C)(N)[C@H](O)[C@H](C)O3)Oc3ccc(cc3Cl)[C@H]2O)c2ccc(O)c(c2)-c2c(O)cc(O)cc21.O=C([O-])C(F)(F)F` ) has log10(MIC) equal to 0.70

----------
Test system: Enterococcus faecium
EXPERIMENT_SUMMARY: Antibacterial activity against vancomycin-resistant VanA phenotype of Enterococcus faecium ATCC 51559 assessed as leakage of intracellular potassium ion at 10 uM measured for 10 mins by PBFI-AM dye-based spectrofluorometric analysis
Type: functional, organism-based
Calls of active or inactive are those of the source. No cut-off for these calls is given here.
Would you mind answering with one of these outcomes? active, inactive

CCCC[N+](C)(C)CCCNC(=O)[C@H]1NC(=O)[C@H]2NC(=O)[C@H](NC(=O)[C@@H]3NC(=O)[C@H](CC(N)=O)NC(=O)[C@H](NC(=O)[C@@H](CC(C)C)NC)[C@H](O)c4ccc(c(Cl)c4)Oc4cc3cc(c4O[C@@H]3O[C@H](CO)[C@@H](O)[C@H](O)[C@H]3O[C@H]3C[C@](C)(N)[C@H](O)[C@H](C)O3)Oc3ccc(cc3Cl)[C@H]2O)c2ccc(O)c(c2)-c2c(O)cc(O)cc21 :: inactive
CC[N+](C)(C)CCCNC(=O)[C@H]1NC(=O)[C@H]2NC(=O)[C@H](NC(=O)[C@@H]3NC(=O)[C@H](CC(N)=O)NC(=O)[C@H](NC(=O)[C@@H](CC(C)C)NC)[C@H](O)c4ccc(c(Cl)c4)Oc4cc3cc(c4O[C@@H]3O[C@H](CO)[C@@H](O)[C@H](O)[C@H]3O[C@H]3C[C@](C)(N)[C@H](O)[C@H](C)O3)Oc3ccc(cc3Cl)[C@H]2O)c2ccc(O)c(c2)-c2c(O)cc(O)cc21 :: inactive

As a next step, examine the compound that follows.
What did the test return for `CCCCCCCCCCCCCCCCCC[N+](C)(C)CCCNC(=O)[C@H]1NC(=O)[C@H]2NC(=O)[C@H](NC(=O)[C@@H]3NC(=O)[C@H](CC(N)=O)NC(=O)[C@H](NC(=O)[C@@H](CC(C)C)NC)[C@H](O)c4ccc(c(Cl)c4)Oc4cc3cc(c4O[C@@H]3O[C@H](CO)[C@@H](O)[C@H](O)[C@H]3O[C@H]3C[C@](C)(N)[C@H](O)[C@H](C)O3)Oc3ccc(cc3Cl)[C@H]2O)c2ccc(O)c(c2)-c2c(O)cc(O)cc21.O=C([O-])C(F)(F)F` ?
active

----------
System: Staphylococcus aureus
EXPERIMENT_SUMMARY: Antibacterial activity against vancomycin-intermediate-resistant Staphylococcus aureus assessed as growth inhibition by broth microdilution method
Assay type: functional
REPORTED_METRIC: MIC (µM)
Give your result in µM as a bare value.

CCCC[N+](C)(C)CCCNC(=O)[C@H]1NC(=O)[C@H]2NC(=O)[C@H](NC(=O)[C@@H]3NC(=O)[C@H](CC(N)=O)NC(=O)[C@H](NC(=O)[C@@H](CC(C)C)NC)[C@H](O)c4ccc(c(Cl)c4)Oc4cc3cc(c4O[C@@H]3O[C@H](CO)[C@@H](O)[C@H](O)[C@H]3O[C@H]3C[C@](C)(N)[C@H](O)[C@H](C)O3)Oc3ccc(cc3Cl)[C@H]2O)c2ccc(O)c(c2)-c2c(O)cc(O)cc21 :: 1.14
CN[C@H](CC(C)C)C(=O)N[C@H]1C(=O)N[C@@H](CC(N)=O)C(=O)N[C@H]2C(=O)N[C@H]3C(=O)N[C@H](C(=O)N[C@H](C(=O)NCCCN(C)C)c4cc(O)cc(O)c4-c4cc3ccc4O)[C@H](O)c3ccc(c(Cl)c3)Oc3cc2cc(c3O[C@@H]2O[C@H](CO)[C@@H](O)[C@H](O)[C@H]2O[C@H]2C[C@](C)(N)[C@H](O)[C@H](C)O2)Oc2ccc(cc2Cl)[C@H]1O :: 1.47

# next compound below
Entry `CCCCCCCCCCCCCCCCCC[N+](C)(C)CCCNC(=O)[C@H]1NC(=O)[C@H]2NC(=O)[C@H](NC(=O)[C@@H]3NC(=O)[C@H](CC(N)=O)NC(=O)[C@H](NC(=O)[C@@H](CC(C)C)NC)[C@H](O)c4ccc(c(Cl)c4)Oc4cc3cc(c4O[C@@H]3O[C@H](CO)[C@@H](O)[C@H](O)[C@H]3O[C@H]3C[C@](C)(N)[C@H](O)[C@H](C)O3)Oc3ccc(cc3Cl)[C@H]2O)c2ccc(O)c(c2)-c2c(O)cc(O)cc21.O=C([O-])C(F)(F)F` , MIC reported as 0.92

----------
Tested on: Enterococcus faecium
EXPERIMENT_SUMMARY: Antibacterial activity against vancomycin-resistant VanA phenotype of Enterococcus faecium ATCC 51559 assessed as induction of cytoplasmic membrane permeabilization at 10 uM measured for 10 mins by propidium iodide uptake assay
Assay type: functional, organism-based
Activity calls are given as the source filed them. No cut-off for these calls is given here.
Please reply with one of these outcomes: active, inactive

These solved cases illustrate the format of a correct answer.
CCCCCCCCCCCCCC[N+](C)(C)CCCNC(=O)[C@H]1NC(=O)[C@H]2NC(=O)[C@H](NC(=O)[C@@H]3NC(=O)[C@H](CC(N)=O)NC(=O)[C@H](NC(=O)[C@@H](CC(C)C)NC)[C@H](O)c4ccc(c(Cl)c4)Oc4cc3cc(c4O[C@@H]3O[C@H](CO)[C@@H](O)[C@H](O)[C@H]3O[C@H]3C[C@](C)(N)[C@H](O)[C@H](C)O3)Oc3ccc(cc3Cl)[C@H]2O)c2ccc(O)c(c2)-c2c(O)cc(O)cc21.O=C([O-])C(F)(F)F :: active
CCCCCCCCCC[N+](C)(C)CCCNC(=O)[C@H]1NC(=O)[C@H]2NC(=O)[C@H](NC(=O)[C@@H]3NC(=O)[C@H](CC(N)=O)NC(=O)[C@H](NC(=O)[C@@H](CC(C)C)NC)[C@H](O)c4ccc(c(Cl)c4)Oc4cc3cc(c4O[C@@H]3O[C@H](CO)[C@@H](O)[C@H](O)[C@H]3O[C@H]3C[C@](C)(N)[C@H](O)[C@H](C)O3)Oc3ccc(cc3Cl)[C@H]2O)c2ccc(O)c(c2)-c2c(O)cc(O)cc21 :: active

Give the logged outcome of this assay for the following compound: `CCCCCCCCCCCCCCNCCCNC(=O)[C@H]1NC(=O)[C@H]2NC(=O)[C@H](NC(=O)[C@@H]3NC(=O)[C@H](CC(N)=O)NC(=O)[C@H](NC(=O)[C@@H](CC(C)C)NC)[C@H](O)c4ccc(c(Cl)c4)Oc4cc3cc(c4O[C@@H]3O[C@H](CO)[C@@H](O)[C@H](O)[C@H]3O[C@H]3C[C@](C)(N)[C@H](O)[C@H](C)O3)Oc3ccc(cc3Cl)[C@H]2O)c2ccc(O)c(c2)-c2c(O)cc(O)cc21`
inactive
